Provenance of the data: patent US8513423B2

Recorded measurements of pIC50, one per entry
- Study system: purified wild type MGL (wt-MGLL 6H-11-313) (Homo sapiens)
- Sequence (Q99685 1-303): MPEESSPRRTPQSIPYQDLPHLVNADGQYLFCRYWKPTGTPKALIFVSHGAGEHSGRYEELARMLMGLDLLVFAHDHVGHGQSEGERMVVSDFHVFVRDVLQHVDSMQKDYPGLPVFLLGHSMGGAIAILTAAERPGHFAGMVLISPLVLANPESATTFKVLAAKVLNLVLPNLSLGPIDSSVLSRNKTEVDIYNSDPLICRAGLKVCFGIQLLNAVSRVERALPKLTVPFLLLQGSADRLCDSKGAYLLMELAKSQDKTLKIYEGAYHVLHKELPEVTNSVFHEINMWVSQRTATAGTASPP
Friendly reminder that pIC50 comes from taking -log10 of the concentration in mol/L.

Chemical smiles	Measured metric	Recorded number
O=C(c1ccc(-c2cccc(C(F)(F)F)c2)cc1)N1CCC(C2CN(C(=O)c3cscn3)C2)CC1	pIC50	8.22
O=C(c1ccc2c(ccn2-c2ccc(F)cc2)c1)N1CCC(C2CN(C(=O)c3cscn3)C2)CC1	pIC50	7.92
O=C(c1cc2ccc(C(F)(F)F)cc2s1)N1CC(C2(O)CCN(C(=O)c3nccs3)CC2)C1	pIC50	8.00

For O=C(c1ccc2nc(-c3ccccc3)oc2c1)N1CC(C2CCN(C(=O)c3ccc[nH]3)CC2)C1 the molecule record lists pIC50 as 8.05

For O=C(c1ccc(-c2ccc(C(F)(F)F)s2)cc1)N1CC(C2CCN(C(=O)c3ccc[nH]3)CC2)C1 the molecule record lists pIC50 as 7.42

* * *

- Study system: MGL (Rattus norvegicus, UniProt Q8R431)
- Construct: one g rat brain was homogenized; from tissue; host or cells: rat brain homogenate
- Sequence (Q8R431 whole entry): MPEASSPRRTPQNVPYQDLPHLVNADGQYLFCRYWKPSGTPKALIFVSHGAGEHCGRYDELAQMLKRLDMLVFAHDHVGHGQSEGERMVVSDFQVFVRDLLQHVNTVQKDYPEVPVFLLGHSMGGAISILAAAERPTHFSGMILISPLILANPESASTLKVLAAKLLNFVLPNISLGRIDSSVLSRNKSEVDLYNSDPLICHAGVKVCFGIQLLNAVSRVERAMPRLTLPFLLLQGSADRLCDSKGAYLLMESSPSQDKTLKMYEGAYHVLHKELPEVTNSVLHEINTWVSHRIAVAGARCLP
- Method: 2-AG accumulation assay in rat brain homogenate
- Type: biochemical
- Test settings: compound @1 μM, read-out: Rat Brain 2AG % VehCntrl (%) @1 μM
Sorting guide: entries reporting 2-AG accumulation, percent of vehicle control at 1 µM beneath 700% go in the YES pile, the rest go in the NO pile.

The examples below pair each entry with its known result.
Chemical smiles	Study system	Label value
O=C(c1ccc2c(ccn2-c2ccc(F)c(F)c2)c1)N1CCC(C2CN(C(=O)c3ccc[nH]3)C2)CC1	MGL (Rattus norvegicus, UniProt Q8R431)	NO
O=C(c1ccc2nc(-c3ccccc3)oc2c1)N1CCC(C2CN(C(=O)c3ccc[nH]3)C2)CC1	MGL (Rattus norvegicus, UniProt Q8R431)	YES
O=C(c1ccc2c(ccn2-c2ccc(C(F)(F)F)cc2)c1)N1CC(C2CCN(C(=O)c3nccs3)CC2)C1	MGL (Rattus norvegicus, UniProt Q8R431)	NO
O=C(c1cccc(-c2cccc(F)c2)c1)N1CC(C2CCN(C(=O)c3nccs3)CC2)C1	MGL (Rattus norvegicus, UniProt Q8R431)	YES
Cc1c(C(=O)N2CCC(C3CN(C(=O)c4nccs4)C3)CC2)sc2cc(C(F)(F)F)ccc12	MGL (Rattus norvegicus, UniProt Q8R431)	YES
Cc1c(C(=O)N2CC(C3CCN(C(=O)c4nccs4)CC3)C2)sc2cc(C(F)(F)F)ccc12	MGL (Rattus norvegicus, UniProt Q8R431)	NO

Request: API: query returns whether the molecule falls strictly under 700% in 2-AG accumulation, percent of vehicle control at 1 µM. Query: O=C(c1ccc(Cc2ccc(C(F)(F)F)cc2)cc1)N1CCC(C2CN(C(=O)c3ccc[nH]3)C2)CC1
Response: YES

Request: API: query returns whether the molecule falls strictly under 700% in 2-AG accumulation, percent of vehicle control at 1 µM. Query: O=C(c1ccc2nc(-c3ccccc3)oc2c1)N1CCC(C2CN(C(=O)c3nccs3)C2)CC1
Response: NO
